src = PubChem BioAssay (NCATS)

assay.comment: qHTS Assay for Lipid Storage Modulators (AID 1519)
condition.label: Drosophila S3 cells, BODIPY lipid droplet/cell ratio, laser cytometry; measured here: cell count channel max response; cells loaded with oleic acid
Inconclusive results are not listed.
measured.attribute: max response (%)
Just the number please, in %, no unit attached.

Example entries begin here.
{"columns": ["molecule", "reading"],
 "data": [
  ["CC[C@H](C)[C@H](NC(=O)OCC1c2ccccc2-c2ccccc21)C(=O)O", 1.47],
  ["Nc1nc2c(c(=O)[nH]1)N(C=O)C(CNc1ccc(C(=O)NC(CCC(=O)O)C(=O)O)cc1)CN2 (stereo unspecified)", 17.6],
  ["Cc1nccn1C[C@@H]1CCc2c(c3ccccc3n2C)C1=O", -10],
  ["Cc1ccc2c(c1)CC[C@H]1CC(=O)CC[C@@]21C", -2.47],
  ["COc1ccc2c(c1)O[C@@H]1c3ccc(OC)cc3OCC21 (stereo partly specified)", 4.03]
]}

Q. State its max response for this molecule: COc1cc(NS(C)(=O)=O)ccc1Cc1c2ccccc2nc2ccccc12
A. 13

Q. Assign max response to the following record: CC(C)(CS)C(=O)N1CCC[C@H]1C(=O)O
A. 2.97

Q. Answer with reported max response of CO[C@@H]1C[C@H](O[C@H]2[C@@H](C)[C@H](O[C@@H]3O[C@@H](C)C[C@@H](N(C)C)[C@@H]3OC(C)=O)[C@H](C)C[C@]3(CO3)C(=O)[C@H](C)[C@H](OC(C)=O)[C@H](C)[C@H](C)OC(=O)[C@@H]2C)O[C@H](C)[C@@H]1OC(C)=O
A. -6.43

Q. Read the entry C[N+]1(C)CC(O)[C@H](C(=O)[O-])C1 (stereo partly specified) and write its reported max response.
A. 0.129

Q. Retrieve max response measured for C[C@]12CCC(=O)C=C1CCC1C2C(=O)C[C@]2(C)C1CC[C@]2(O)C(=O)CO (stereo partly specified) and print it.
A. 22.5

Q. Entry CC(C)[C@H]1CC[C@@H](C)C[C@H]1O needs its max response filled in; supply it.
A. -11.9

Q. Complete the entry with the larger response for COc1cc(N)c(Cl)cc1C(=O)N[C@H]1CCN(CCCOc2ccc(F)cc2)C[C@H]1OC
A. -1.69

Q. Complete the entry with the larger response for C=C1C2CC[C@@]3(C)C(c4ccoc4)OC(=O)C[C@@]13OC1CC(=O)C(C)(C)C(CC(=O)OC)[C@]12C (stereo partly specified)
A. -7.73

Q. Supply max response value. Item: C#C[C@@]1(O)CC[C@@H]2[C@@H]3CCC4=CC(=O)CC[C@@H]4[C@H]3CC[C@]21C
A. -8.09

Q. State its max response: CON
A. 12.5

Q. Answer with the recorded max response for the molecule listed here: C[C@@]12CC[C@@H]3c4ccc(O)cc4CC[C@H]3[C@H]1C[C@@H](O)[C@H]2O
A. -5.07

###

assay.comment: qHTS Assay for Lipid Storage Modulators (AID 1519); on activity change, negative = inhibition: on the % scale 0 is the no-effect control and ±100 the full control effect
condition.label: Drosophila S3 cells, BODIPY lipid droplet/cell ratio, laser cytometry; at 25.7 µM (top of the series); cells loaded with oleic acid
Records with an inconclusive call do not appear.
Reported activity change, negative = inhibition by item:
Report only the number, with the unit % understood.

# count of solved cases: 3
{"columns": ["smiles.string", "measured.attribute", "units.text", "reading"],
 "data": [
  ["CC1(C)[C@@H](OC(=O)CCC(=O)O)CC[C@@]2(C)[C@H]1CC[C@@]1(C)[C@H]2C(=O)C=C2[C@H]3C[C@](C)(C(=O)O)CC[C@]3(C)CC[C@@]21C", "activity change, negative = inhibition", "%", -0.623],
  ["O=C1O[C@@H]([C@@H](O)CO)[C@@H](O)[C@H]1O", "activity change, negative = inhibition", "%", -0.208],
  ["CC(=O)c1cc2ccccc2oc1=O", "activity change, negative = inhibition", "%", -3.99]
]}

Next item in the queue.
Q. Give activity change, negative = inhibition for the following molecule: O=C(/C=C\c1ccc(O)c(O)c1)O[C@@H]1C[C@](O)(C(=O)O)C[C@@H](O)[C@@H]1O
A. 2.29
